- ASSAY TARGET: T1, exemplary TAT frataxin fusion molecule (HIV-1, UniProt Q16595 1-210)
- T1 construct: in the bridging assays biotinylated and sulfotagged forms were used; also called TAT-FXN fusion molecule; TAT FXN fusion molecule
- T1 sequence: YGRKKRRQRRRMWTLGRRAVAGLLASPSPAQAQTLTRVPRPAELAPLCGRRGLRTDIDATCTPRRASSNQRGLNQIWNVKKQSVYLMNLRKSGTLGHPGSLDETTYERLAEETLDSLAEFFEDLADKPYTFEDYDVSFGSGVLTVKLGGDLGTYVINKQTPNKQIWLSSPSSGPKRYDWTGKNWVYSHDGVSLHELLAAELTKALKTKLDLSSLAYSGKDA
- PROCEDURE DETAILS: PK sandwich ELISA in human plasma, antibody as capture, HRP anti-frataxin mAb detection
The entries below are paired with their reported S/N at plasma conc. 0.400 ng/mL.

| BINDER | S/N at plasma conc. 0.400 ng/mL |
| --- | --- |
| antibody 12-1 (antibody, V domains shown, Rabbit monoclonal) VH: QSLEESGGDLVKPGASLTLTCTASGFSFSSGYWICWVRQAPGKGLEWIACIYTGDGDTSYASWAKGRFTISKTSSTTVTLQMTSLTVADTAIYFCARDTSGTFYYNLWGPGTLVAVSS VL: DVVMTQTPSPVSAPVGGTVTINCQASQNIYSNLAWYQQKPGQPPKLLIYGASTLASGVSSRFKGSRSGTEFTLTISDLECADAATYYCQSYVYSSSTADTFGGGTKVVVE | 1.4 |
| antibody 10-9 (antibody, V domains shown, Rabbit monoclonal) VH: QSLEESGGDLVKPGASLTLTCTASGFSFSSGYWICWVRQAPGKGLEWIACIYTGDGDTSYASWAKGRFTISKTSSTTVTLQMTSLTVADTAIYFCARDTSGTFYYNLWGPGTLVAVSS VL: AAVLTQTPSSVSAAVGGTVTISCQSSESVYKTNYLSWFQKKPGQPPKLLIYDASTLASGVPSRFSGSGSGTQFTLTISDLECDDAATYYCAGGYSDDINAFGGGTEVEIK | 1.6 |
| antibody 10-5 (antibody, V domains shown, Rabbit monoclonal) VH: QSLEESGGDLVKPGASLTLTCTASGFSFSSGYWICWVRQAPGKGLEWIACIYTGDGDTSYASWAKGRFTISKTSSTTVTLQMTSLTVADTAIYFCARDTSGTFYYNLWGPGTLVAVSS VL: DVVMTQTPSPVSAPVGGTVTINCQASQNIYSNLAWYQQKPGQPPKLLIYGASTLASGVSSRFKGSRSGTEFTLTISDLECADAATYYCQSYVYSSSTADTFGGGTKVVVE | 1.5 |
| antibody 10-1 (antibody, V domains shown, Rabbit monoclonal) VH: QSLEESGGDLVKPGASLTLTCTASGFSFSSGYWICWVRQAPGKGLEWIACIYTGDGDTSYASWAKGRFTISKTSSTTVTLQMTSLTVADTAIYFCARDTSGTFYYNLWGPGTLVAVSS VL: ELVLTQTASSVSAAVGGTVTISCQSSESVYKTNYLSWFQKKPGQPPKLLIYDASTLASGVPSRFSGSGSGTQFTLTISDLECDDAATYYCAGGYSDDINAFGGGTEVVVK | 1.5 |
